I'd be grateful if you could share measured activation factor for these entries.
Molecular target: Mannose-6-phosphate isomerase (Homo sapiens) (UniProt P34949)
Sequence (P34949 whole entry, looked up): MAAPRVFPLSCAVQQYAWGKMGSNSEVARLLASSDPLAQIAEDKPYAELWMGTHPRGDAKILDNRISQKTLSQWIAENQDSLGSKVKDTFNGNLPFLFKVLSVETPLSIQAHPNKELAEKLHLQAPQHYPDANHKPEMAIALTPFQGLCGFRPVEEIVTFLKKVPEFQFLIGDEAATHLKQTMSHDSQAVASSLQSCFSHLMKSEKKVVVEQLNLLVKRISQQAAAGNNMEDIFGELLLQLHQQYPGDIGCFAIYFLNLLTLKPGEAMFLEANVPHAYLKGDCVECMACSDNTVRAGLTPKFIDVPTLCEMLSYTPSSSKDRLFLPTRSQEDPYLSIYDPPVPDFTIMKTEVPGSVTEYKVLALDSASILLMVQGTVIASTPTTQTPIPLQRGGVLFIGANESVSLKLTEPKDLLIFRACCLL
Experiment: MPI enzyme activity enhancement – biochemical, fluorescence intensity, near-Km mannose 6-phosphate, primary screen (AID 1214)
Settings: purified human PMI, coupled resazurin fluorescence, 20 min; at 20 µM; stronger effect = higher value; 1 = vehicle control, 0 substrate-free wells
The whole screen tested about 190,000 compounds, of which about 10 (0.005%) were called active. Only a sample is shown.
Give the value as a plain number.

Which measured activation factor value corresponds to `Cc1ccc(S(=O)(=O)N2CCN(CC(=O)N/N=C/c3ccc(Br)s3)CC2)cc1` ?
0.9

Which measured activation factor value corresponds to `CCCNC(=O)OC[C@H]1O[C@H](CCO/N=C/[C@@H](NS(=O)(=O)c2ccc(C)cc2)[C@H](C)/C=C/CC(=O)OC)C=C[C@@H]1Oc1ccc(OC)cc1` ?
0.9

Which measured activation factor value corresponds to `O=C(Nc1ccc(CSc2ccccc2)cc1)c1ccc(CN2CCOCC2)cc1` ?
1.1

Which measured activation factor value corresponds to `CCC(=O)Nc1c(C)n[nH]c1C` ?
0.9

Which measured activation factor value corresponds to `COc1ccc(NC(=O)CN(Cc2ccccc2)S(C)(=O)=O)cc1OC` ?
0.9

Which measured activation factor value corresponds to `Cc1ccc(OCc2n[nH]c(=S)n2-c2ccc(C)cc2)cc1` ?
0.8

Which measured activation factor value corresponds to `COC(=O)c1nc(NC(=O)c2ccc(C(C)(C)C)cc2)n[nH]1` ?
1.1

Which measured activation factor value corresponds to `COc1cc(S(=O)(=O)N2CCOCC2)ccc1NC(=O)COc1ccc(N(C)S(=O)(=O)c2ccc(C)cc2)cc1` ?
1

Which measured activation factor value corresponds to CCCCCC1CCC(c2nnc(SCC(C)=O)o2)CC1 (configuration not stated) ?
1

Which measured activation factor value corresponds to `CC[n+]1c(C)n(-c2ccccc2)c2ccc(NC(C)=O)cc21` ?
0.5

Which measured activation factor value corresponds to `O=C(CSc1nnc2ccc(-c3ccncc3)nn12)N1CCCCC1` ?
1

Which measured activation factor value corresponds to `COc1ccccc1N(CC(=O)Nc1ccc(C(F)(F)F)cc1)S(C)(=O)=O` ?
1

Which measured activation factor value corresponds to O=C(CC1C(=O)NCCN1Cc1ccc(-c2ccccc2)cc1)NCc1ccncc1 (configuration not stated) ?
1

Which measured activation factor value corresponds to CCOC(=O)C1=C(N)N(c2ccc(C)cc2)C2=C(C(=O)CCC2)C1c1cccs1 (configuration not stated) ?
1

Which measured activation factor value corresponds to COC(=O)C(NS(=O)(=O)c1ccc(F)cc1)c1ccccc1 (configuration not stated) ?
1

Which measured activation factor value corresponds to `COc1ccc(N2CCN(C(C)=C3C(=O)c4ccccc4C3=O)CC2)cc1` ?
0.9

Which measured activation factor value corresponds to `O=S(=O)(c1ccc2c(c1)OCCO2)N1CCc2ccccc21` ?
0.9

Which measured activation factor value corresponds to `CSc1ccc(CNCCN2CCOCC2)cc1` ?
1.1

Which measured activation factor value corresponds to `COc1ccc(Cl)cc1NC(=O)Cn1nc(-c2ccc(C)cc2)n(C)c1=S` ?
1.1

Which measured activation factor value corresponds to `COCCNc1nc2nonc2nc1N(C)Cc1ccc(C)cc1` ?
0.9

Which measured activation factor value corresponds to N=C1C(=O)OCC1c1ccccc1NC(=O)CN1CCCCC1 (configuration not stated) ?
1.1

Which measured activation factor value corresponds to `CC1CCN(c2ccc(C(=O)NCc3ccc4c(c3)OCO4)cc2[N+](=O)[O-])CC1` ?
0.8
